Biological target: human cloned 5-HT6 receptors (Homo sapiens)
Construct: expressed in transfected cells; host or cells: HeLa cells
Sequence (P50406 whole entry): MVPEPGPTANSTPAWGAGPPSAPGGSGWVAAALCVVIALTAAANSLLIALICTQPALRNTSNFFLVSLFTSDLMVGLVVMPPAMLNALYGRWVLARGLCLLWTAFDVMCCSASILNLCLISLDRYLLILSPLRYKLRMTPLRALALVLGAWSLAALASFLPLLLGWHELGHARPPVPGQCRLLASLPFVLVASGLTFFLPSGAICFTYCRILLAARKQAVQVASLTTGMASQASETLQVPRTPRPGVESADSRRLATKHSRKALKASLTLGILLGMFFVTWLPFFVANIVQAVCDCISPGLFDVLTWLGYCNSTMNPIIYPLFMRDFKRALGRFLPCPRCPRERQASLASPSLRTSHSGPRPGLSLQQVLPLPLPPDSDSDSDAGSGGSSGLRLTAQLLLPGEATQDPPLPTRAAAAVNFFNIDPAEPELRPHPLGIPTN
Type: binding
Conditions: test compound dose 1000 nM; displacement of [3H]-LSD
endpointLabel: % Inhibition (%)
Answer format: numeric, % implied, no suffix.

The molecule listed as CN(N=C(c1ccc(Cl)cc1)c1c(-c2ccccc2)[nH]c2ccccc12)C1=NCCN1 shows % Inhibition equal to 18.1

The molecule listed as C=CCCn1c(-c2ccc(Cl)cc2)c(C=NN(C)C2=NCCN2)c2ccccc21 shows % Inhibition equal to 85.1

The molecule listed as Cc1ccc(Cn2c(-c3ccc(Cl)cc3)c(C=NN(C)C3=NCCN3)c3ccccc32)cc1 shows % Inhibition equal to 5.7

The molecule listed as CN(N=C(c1ccc(Cl)cc1)c1c(-c2ccc(Cl)cc2)[nH]c2ccccc12)C1=NCCN1 shows % Inhibition equal to 35.2

====

Molecular target: human cloned 5-HT6 receptors (Homo sapiens)
Construct: expressed in transfected cells; host or cells: HeLa cells
Format: binding
Conditions: test compound dose 1000 nM; displacement of [3H]-LSD
Could you please report measured inhibition at 1 µM for the items listed next?
Answer format: numeric, % implied, no suffix.

Here CN(N=C1CCCc2[nH]c3ccc(Br)cc3c21)C1=NCCN1 was tested on human cloned 5-HT6 receptors (Homo sapiens), and its inhibition at 1 µM came to 76

Here N=C(N)NN=C(Cc1ccccc1)c1c(-c2ccc(F)c(Cl)c2)[nH]c2ccccc12 was tested on human cloned 5-HT6 receptors (Homo sapiens), and its inhibition at 1 µM came to 83.9

Here COc1ccc(S(=O)(=O)Nc2ccc3c(c2)c(C(C)=NNC(=N)N)cn3C)cc1 was tested on human cloned 5-HT6 receptors (Homo sapiens), and its inhibition at 1 µM came to 99

Here CN(N=C(C=Cc1ccccc1)c1c(-c2ccc(Cl)cc2)[nH]c2ccccc12)C1=NCCN1 was tested on human cloned 5-HT6 receptors (Homo sapiens), and its inhibition at 1 µM came to 40.9

Here CC(=NNC(=N)N)c1cn(C)c2ccc(NS(=O)(=O)c3ccc(Cl)cc3)cc12 was tested on human cloned 5-HT6 receptors (Homo sapiens), and its inhibition at 1 µM came to 98.4

Here Cc1nc(Cn2c(-c3ccc(Cl)cc3)c(C=NNC(=N)N)c3ccccc32)cs1 was tested on human cloned 5-HT6 receptors (Homo sapiens), and its inhibition at 1 µM came to 24

Here N=C(N)NN=Cc1c(-c2ccc(F)c(Cl)c2)[nH]c2ccccc12 was tested on human cloned 5-HT6 receptors (Homo sapiens), and its inhibition at 1 µM came to 88.6

Here CN(N=C1CCCc2[nH]c3ccc(F)cc3c21)C1=NCCN1 was tested on human cloned 5-HT6 receptors (Homo sapiens), and its inhibition at 1 µM came to 68.7

Here CCCNC(=NC)NN=Cc1c(-c2ccc(Cl)cc2)[nH]c2ccccc12 was tested on human cloned 5-HT6 receptors (Homo sapiens), and its inhibition at 1 µM came to 49.9

====

Target: human cloned 5-HT6 receptors (Homo sapiens)
Construct: expressed in transfected cells; host or cells: HeLa cells
Assay type: binding
Settings: test compound dose 100 nM; displacement of [3H]-LSD; read-out: % Inhibition
Could you please report measured inhibition at 0.1 µM for the items listed next?
Answer format: numeric, % implied, no suffix.

Here CC1(C)CC(=NNC(=N)N)c2c([nH]c3ccc(Br)cc23)C1 [Example 169] was tested on human cloned 5-HT6 receptors (Homo sapiens), and its inhibition at 0.1 µM came to 33.9

Here CC(C)c1ccc2[nH]c3c(c2c1)C(=NNC(=N)N)CC(C)(C)C3 [Example 166] was tested on human cloned 5-HT6 receptors (Homo sapiens), and its inhibition at 0.1 µM came to 27.3

Here Cc1ccc2[nH]c3c(c2c1)C(=NNC(=N)N)CCC3 [Example 165] was tested on human cloned 5-HT6 receptors (Homo sapiens), and its inhibition at 0.1 µM came to 57.2

Here CN(N=C1CC(c2ccccc2)Cc2[nH]c3ccc(F)cc3c21)C1=NCCN1 (centres unmarked) [Example 180] was tested on human cloned 5-HT6 receptors (Homo sapiens), and its inhibition at 0.1 µM came to 11.5

Here CC(C)c1ccc2[nH]c3c(c2c1)C(=NNC(=N)N)CC(c1ccccc1)C3 (centres unmarked) [Example 167] was tested on human cloned 5-HT6 receptors (Homo sapiens), and its inhibition at 0.1 µM came to 35.2

Here N=C(N)NN=C1CC(c2ccccc2)Cc2[nH]c3ccc(Br)cc3c21 (centres unmarked) [Example 170] was tested on human cloned 5-HT6 receptors (Homo sapiens), and its inhibition at 0.1 µM came to 24.4

Here CC(C)c1ccc2[nH]c3c(c2c1)C(=NN(C)C1=NCCN1)CC(C)(C)C3 [Example 177] was tested on human cloned 5-HT6 receptors (Homo sapiens), and its inhibition at 0.1 µM came to 22.9

Here C/C(=N\NC(=N)N)c1c(-c2sccc2C)n(C)c2ccccc12 [Example 146] was tested on human cloned 5-HT6 receptors (Homo sapiens), and its inhibition at 0.1 µM came to 46.1
